Target: T1, PUF4 RNA-binding domain (Saccharomyces cerevisiae, UniProt P25339 537-888)
T1 sequence: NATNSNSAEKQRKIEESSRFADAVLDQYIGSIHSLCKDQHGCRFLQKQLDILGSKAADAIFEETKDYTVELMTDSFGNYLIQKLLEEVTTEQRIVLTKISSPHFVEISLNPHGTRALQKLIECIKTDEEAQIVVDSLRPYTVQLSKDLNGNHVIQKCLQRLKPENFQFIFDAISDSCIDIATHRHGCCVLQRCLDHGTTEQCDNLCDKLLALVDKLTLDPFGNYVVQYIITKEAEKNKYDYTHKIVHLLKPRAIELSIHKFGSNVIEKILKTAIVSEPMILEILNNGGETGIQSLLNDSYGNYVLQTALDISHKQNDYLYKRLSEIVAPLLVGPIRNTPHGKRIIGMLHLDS
Experiment: Mg; RNA-MaP; 20 mM Na-HEPES pH 7.4, 30 mM KOAc, 0.75 mM MgCl2, 0.1% Tween-20, 5% glycerol, 0.1 mg/mL BSA, 2 mM DTT; 25 C; 0.0125-409.6 nM protein
Conditions: tags: N-His6-TEV cleaved; C-SNAP kept, Cy3B-labelled; label: tethered on chip by stalled RNA polymerase
pKd: −log10 of the molar value.
readout.type: pKd

[[record]]
binder = "UCUCUUUGUAUUACAUUCUCUU (ssRNA) [Ic_S1_P5E.1_K5.1_C5.1_H5.1_A5.1_F5.1_[T8C]_[T9A]_[A10T]_T5.1]"
readout_type = "pKd"
measurement_qualifier = "="
number = 6.92

[[record]]
binder = "ACAAACUCUAUAUAUACCACAAAC (ssRNA) [Id_ii_S3_P3E.3_K3.2_C3.2_[C-2T]_[T-1C]_H3.2_A3.1_F3.1_T3.2_[T9C]_[A10C]]"
readout_type = "pKd"
measurement_qualifier = "="
number = 6.11

[[record]]
binder = "UCUCUUAAACACUAUAAAUCUCUU (ssRNA) [Id_ii_S1_P3E.4_K3.3_C3.2_[C-2A]_[T-1A]_H3.3_A3.1_F3.1_T3.2_[T9A]]"
readout_type = "pKd"
measurement_qualifier = "<"
number = 5.64

[[record]]
binder = "UCUCUUGCUGUAUAUACCUCUCUU (ssRNA) [Id_ii_S1_P3E.2_K3.1_C3.2_[C-2G]_[T-1C]_H3.1_A3.1_F3.1_T3.2_[T9C]_[A10C]]"
readout_type = "pKd"
measurement_qualifier = "="
number = 7.76

[[record]]
binder = "UCUCUUUGUAUAUCUUAUCUCUU (ssRNA) [Ie_S1_P4E.1_K4.1_C4.1_H4.1_A4.1_[+7CT]_F4.1_T4.1]"
readout_type = "pKd"
measurement_qualifier = "="
number = 8.16

[[record]]
binder = "UCUCUUUCACACUUAUUAUCUCUCUU (ssRNA) [Id_ii_S1_P5E.4_K5.3_C5.2_[C-2T]_[T-1C]_H5.3_A5.1_F5.1_T5.2_[A12C]]"
readout_type = "pKd"
measurement_qualifier = "<"
number = 5.64

[[record]]
binder = "UCUCUUGUUGUAUAUUAUCUCUCUU (ssRNA) [Id_ii_S1_P4E.2_K4.1_C4.2_[C-2G]_H4.1_A4.1_F4.1_T4.2_[G10T]_[T11C]]"
readout_type = "pKd"
measurement_qualifier = "="
number = 9.05

